Assign Mean relative activity to each entry below.
- Test system: K562 CRISPRi cells
- Assay Remarks: Constant region variant library pooled growth screen, K562
- Assay type: cell-based, human
- Measurement Context: sgRNA constant region variants; relative to the original, un-modified constant region cr995; CRISPRi
One number for each entry.

Reference set (5 entries):
[[record]]
molecule = "cr682 (nucleic acid, listed as DNA, chemistry not fully specified) guide: GTTTAAGAGCTAAGCTGGAAACAGCATAGCAAGTTTAAATAAGCGTACTGCGTTATCAACTTGAAAAAGTGGCACCGAGTCGGTGCT"
assay_value = 0.4794

[[record]]
molecule = "cr064 (nucleic acid, listed as DNA, chemistry not fully specified) guide: GTTTTAGAGCTAAGCTGGAAACAGCATAGCAAGTTTAAATAAGGCTAGTCCGTTATCAACTTGAAAAAGTGGCACCGAGTCGGTGCT"
assay_value = 0.3383

[[record]]
molecule = "cr955 (nucleic acid, listed as DNA, chemistry not fully specified) guide: GTTTAAGAGCTAAGCTGGAAACAGCATAGCAAGTTTAAATAAGGCTAATCCGTTATCAACTTGAAAAAGTGGCACCGAGTCGGTGCT"
assay_value = 0.4541

[[record]]
molecule = "cr148 (nucleic acid, listed as DNA, chemistry not fully specified) guide: GTTTAAGAGCTAAGCTGGAAACAGCATAGCAAGCTTAAATAAGGCTAGTCCGTTATCAACTTGAAAAAGTGGCGCCGAGTCGGCGCT"
assay_value = 0.4276

[[record]]
molecule = "cr432 (nucleic acid, listed as DNA, chemistry not fully specified) guide: GTTTAAGAGCTAAGCTGGAAACAGCATAGCAAGCTTAAATAAGGCTAGTCCGTTATCAAGTTGAAAAACTGGCACCGAGTCGGTGCT"
assay_value = 0.3923


Please state Mean relative activity for every molecule in the list that follows.
1. cr966 (nucleic acid, listed as DNA, chemistry not fully specified) guide: GTTTAAGAGCTAAGCTGGAAACAGCATAGCAAGTTTAAATAAGGCTAGTCCGTTATCAAGTTGAAAAACTGGCATGGAGTCCATGCT
2. cr005 (nucleic acid, listed as DNA, chemistry not fully specified) guide: GCTTAAGAGCTAAGCTGGAAACAGCATAGCAAGTTTAAATAAGGCTAGTCCGTTATCAACTTGAAAAAGTGGCACCGAGTCGGTGCT
3. cr074 (nucleic acid, listed as DNA, chemistry not fully specified) guide: GTTTATGCGCTAAGCTGGAAACAGCATAGCAAGTTTAAATAAGGCTAGTCCGTTATCAACTTGAAAAAGTGGCACCGAGTCGGTGCT
4. cr471 (nucleic acid, listed as DNA, chemistry not fully specified) guide: GTTTAAGAGCTAAGCTGGAAACAGCATAGCAAGTTTAAATAAGGCTAGTCCGTTATCAACTTGAAAAAGTGTCACACAGTGTGTGAT

0.3699
0.5108
0.341
0.3625

Please state Mean relative activity for every molecule in the list that follows.
1. cr405 (nucleic acid, listed as DNA, chemistry not fully specified) guide: GTTTAAGAGCTAAGCTGGAAACAGCATAGCAAGTTTAAATAAGGCTAGTCCGTTATCAACTTGAAAAAGTGTCAGCAAGTTGCTGAT
2. cr920 (nucleic acid, listed as DNA, chemistry not fully specified) guide: GTTTAAGAGCTAAGCTGGAAACAGCATAGCAAGTTTAAATAAGGCTAGTCCGTTGACTACTTGAAAAAGTGGCACCGAGTCGGTGCT
3. cr889 (nucleic acid, listed as DNA, chemistry not fully specified) guide: GTTTAAGAGCTAAGCTGGAAACAGCATAGCAAGTTTAAATAAAGCTAGTCTGTTATCAACTTGAAAAAGTGTCACCGAGTCGGTGAT
4. cr166 (nucleic acid, listed as DNA, chemistry not fully specified) guide: GTTTAAGAGCTAAGCTGGAAACAGCATAGCAAGCTTAAATAAGGCTAGTCCGTTATCAACTTGAAAAAGTGGTACCGAGTCGGTACT
5. cr177 (nucleic acid, listed as DNA, chemistry not fully specified) guide: GTTTAAGAGCTAAGCTGGAAACAGCATAGCAAGTTTAAAGAAGGCTAGTCCGTTATCAACTTGAAAAAGTGGCACCGAGTCGGTGCT

0.4582
0.4567
0.3347
0.5245
0.4771
